- target_desc: eOD-GT8 (monomeric ligand) (Human immunodeficiency virus 1, …)
pKd: −log10 of the molar value.
Give 1 (yes) when the value for pKd is at least 9. Give 0 (no) when it is less.

INSERT INTO assay_data (binder, label) VALUES
  ('g28-D78-4_CLK09 (antibody, V domains shown) VH: QLQLVQSGAEVKKPGASVKVSCKASGYTFTGYFIHWIRQAPGQGLEWMGWLNPIYGGVNYARNFQGRVTMTRDTSISTAYLELKRLKSDDTAVYYCARVAERMIFDVWGQGTMVTVSS VL: DIQMTQSPSSLSASVGDRVTIACQASQDINNYVNWYQQKPGKAPKLLIYDASNLETGVPSRFSGSGSGTDFTFTISSLQPEDIATYYCQQYEFFGGGTKVEIK', '0 (no)'),
  ('g28-D78-7_CLK09 (antibody, V domains shown) VH: QVQLVQSGAEVKKPGASVRVSCKASGYTFTGNYIHWVRQAPGQGLEWMGWLNPINGGTNHAQKFQGRVTMTRDTSINTAYMELSRLKSDDTTVYYCARVGGLWSGKGWTFDIWGQGTMVTVSS VL: DIQMTQSPSSLSASVGDRVTITCQASQDISILNWYQQKPGKAPKLLIYGASNLETGVPSRFSGSGSGTDFTFTISSLQPEDIATYYCQQYEFFGGGTKVEIK', '1 (yes)'),
  ('g5-D78-8_CLK09 (antibody, V domains shown) VH: QVQLVQSGAEVKKPGVSVKVSCKASGYTFNGYYMHWVRQAPGQGLEWMGWINPNNGGINIARRFEDRVTMTRDTSITTAHMELSRLRSDDSAVYYCARVGGLWFGEKWTFDIWGQGTMVTVSS VL: DIQMTQSPSSLSASVGDRVTITCQTSQDISTFLNWYQQRPGKAPKLLIYGACNLATGVPSRFSGSGSGTDFTFTISSLQPEDIATYYCQQYEFFGGGTKVEIK', '1 (yes)'),
  ('g28-D78-6_CLK09 (antibody, V domains shown) VH: QLQLVQSGADVKKPGASVKVSCKASGYTFTGYFIHWVRQAPGQGLEWMGWLNPIYGGVNYARNFQDRVTMTRDTSISTAYLELRRLKSDDTAVYYCARVAERMIFDVWGQGTMVTVSS VL: DIQMTQSPSSLSASVGDRVTIVCQASQDINNYVNWYQQKPGKAPKLLIYDASNLETGVPSRFSGSRSGTDFTFTISSLQPEDIATYYCQQYEFFGGGTKVEIK', '0 (no)');
